Measured values drawn from ChEMBL document CHEMBL3244179 for this set.

- TESTED SYSTEM: Catechol O-methyltransferase (Rattus norvegicus)
- TEST: Inhibition of Sprague-Dawley rat liver COMT at 2 mM by radiochemical technique
TEST READOUT: inhibition (%)
Unit % implied. Number only.

[[record]]
compound = "Nc1ncnc2c1ncn2[C@@H](CO)O[C@@H](CO)CSCC[C@H](N)C(=O)O"
tested_system = "Catechol O-methyltransferase (Rattus norvegicus)"
result_unit = "%"
reported_value = 25

[[record]]
compound = "Nc1ncnc2c1ncn2[C@@H](CO)O[C@@H](CO)CSCC[C@@H](N)C(=O)O"
tested_system = "Catechol O-methyltransferase (Rattus norvegicus)"
result_unit = "%"
reported_value = 26

[[record]]
compound = "Nc1ncnc2c1ncn2[C@@H](CO)O[C@@H](CO)CSC[C@@H](N)C(=O)O"
tested_system = "Catechol O-methyltransferase (Rattus norvegicus)"
result_unit = "%"
reported_value = 12


Endpoint output: inhibition of Nc1ncnc2c1ncn2[C@@H]1O[C@H](C[S+]([O-])CC[C@@H](N)C(=O)O)[C@@H](O)[C@H]1O (stereo partly drawn) . Value?
42

Given Nc1ncnc2c1ncn2[C@@H]1O[C@H](CSCC(N)C(=O)O)[C@@H](O)[C@H]1O (single isomer, unassigned) , state its recorded inhibition.
5

Need inhibition of `Nc1ncnc2c1ncn2[C@@H]1O[C@H](CSCC[C@H](N)C(=O)O)[C@@H](O)[C@H]1O` , thanks.
87

What value of measured inhibition is listed for `Nc1nnnc2c1ncn2[C@@H](CO)O[C@@H](CO)CSCC[C@@H](N)C(=O)O` ?
5

Which inhibition value is on record for C[S+](CC[C@@H](N)C(=O)O)C[C@H](CO)O[C@H](CO)n1cnc2c(N)ncnc21 (stereo partly drawn) ?
14
